Just for reference, patent US20240122179A1 is where these values come from.

tested on: Kochia scoparia (KCHSC); assay: Postemergence herbicide evaluation, percent reduction in plant size vs untreated control, 21 days after treatment; assay type: in vivo; conditions: Bassia scoparia, post-emergence, 504 h, KCHSC; rate 280 g ae/ha; postemergence, percent reduction vs untreated, 21 days after treatment; read-out: Control/Injury
Measured pest or weed control at 280 g/ha accompanies every entry in the list below.
Please don't drop the unit; write it after the number.

Sample answers from the record:
{"columns": ["MOLECULE", "pest or weed control at 280 g/ha"],
 "data": [
  ["COc1c(Cl)ccc(Cl)c1C(=O)NOc1ccccc1 [Compound A-124]", "0%"],
  ["COc1c(Cl)ccc(Cl)c1C(=O)Oc1nccs1 [Compound A-103]", "3%"],
  ["COc1c(Cl)ccc(Cl)c1C(=O)Oc1cc(C(F)(F)F)n(C)n1 [Compound A-118]", "99%"]
]}

stdin: Kindly indicate its recorded pest or weed control at 280 g/ha. Item: COc1c(Cl)ccc(Cl)c1C(=O)O/N=C/c1cc(/C=N/OC(=O)c2c(Cl)ccc(Cl)c2OC)cc(/C=N/OC(=O)c2c(Cl)ccc(Cl)c2OC)c1 [Compound A-99]
stdout: 95%

stdin: Answer with reported pest or weed control at 280 g/ha of COc1c(Cl)ccc(Cl)c1C(=O)n1ncc2ccccc21 [Compound A-113]
stdout: 93%

stdin: Look up and state reported pest or weed control at 280 g/ha for COc1c(Cl)ccc(Cl)c1C(=O)Oc1nc(-c2ccccc2)cs1 [Compound A-120]
stdout: 85%

stdin: Answer with reported pest or weed control at 280 g/ha of COc1c(Cl)ccc(Cl)c1C(=O)Nc1ccnn1C [Compound A-134]
stdout: 0%

stdin: Give the reported pest or weed control at 280 g/ha for this molecule. COCCONC(=O)c1c(Cl)ccc(Cl)c1OC [Compound A-95]
stdout: 3%

###

List of pest or weed control at 280 g/ha values.
test system: Conyza canadensis (L.) (ERICA); test: Postemergence herbicide evaluation, percent reduction in plant size vs untreated control, 21 days after treatment; format: in vivo, Conyza canadensis (L.) (Horseweed); settings: Erigeron canadensis, post-emergence, 504 h, ERICA, rate 280 g ae/ha, postemergence; read-out: Control/Injury
Please reply with the bare figure in % and do not write the unit itself.

{"columns": ["MOLECULE", "TARGET UNDER TEST", "pest or weed control at 280 g/ha / %"],
 "data": [
  ["COc1c(Cl)ccc(Cl)c1C(=O)NOc1ccccc1 [Compound A-124]", "Conyza canadensis (L.) (ERICA)", 3],
  ["COc1c(Cl)ccc(Cl)c1C(=O)O [Dicamba, 3,6-dichloro-2-methoxybenzoic acid, reference compound]", "Conyza canadensis (L.) (ERICA)", 100],
  ["COc1c(Cl)ccc(Cl)c1C(=O)N1C(=O)C(=O)c2ccccc21 [Compound A-116]", "Conyza canadensis (L.) (ERICA)", 5],
  ["COC(=O)C(C(=O)OC)C(=O)c1c(Cl)ccc(Cl)c1OC [Compound A-135]", "Conyza canadensis (L.) (ERICA)", 25],
  ["COc1c(Cl)ccc(Cl)c1C(=O)NNc1ccc([N+](=O)[O-])cc1 [Compound A-132]", "Conyza canadensis (L.) (ERICA)", 8]
]}

Let us examine a further case.
stdin: Enter pest or weed control at 280 g/ha (test system Conyza canadensis (L.) (ERICA)) for COc1c(Cl)ccc(Cl)c1C(=O)NNc1nc(C)cs1 [Compound A-108]
stdout: 8

###

system: Amaranthus rudis (AMATA); assay: Postemergence herbicide evaluation, percent reduction in plant size vs untreated control, 21 days after treatment; type: in vivo, Amaranthus rudis (tall water hemp); conditions: Amaranthus tuberculatus, post-emergence, 504 h, AMATA, rate 280 g ae/ha, postemergence; read-out: Control/Injury
pest or weed control at 280 g/ha overview
Answer format: numeric, % implied, no suffix.

Example entries begin here.
{"columns": ["MOLECULE", "pest or weed control at 280 g/ha (%)"],
 "data": [
  ["COc1c(Cl)ccc(Cl)c1C(=O)Oc1nccs1 [Compound A-103]", 18],
  ["COc1c(Cl)ccc(Cl)c1C(=O)ONC(=O)c1ccccc1 [Compound A-89]", 78],
  ["COc1c(Cl)ccc(Cl)c1C(=O)O/N=C(\\N)c1ccc2ccccc2c1 [Compound A-138]", 64],
  ["COc1c(Cl)ccc(Cl)c1C(=O)NNc1ccc([N+](=O)[O-])cc1 [Compound A-132]", 18]
]}

stdin: Identify the reported pest or weed control at 280 g/ha for the following entry. COc1c(Cl)ccc(Cl)c1C(=O)OCC[N+](C)(C)C [Compound A-63]
stdout: 77

###

Test system: Glycine max
Test: whole plant or invertebrate
Conditions: Glycine max, post-emergence, 504 h, read-out: Control/Injury
Procedure: Plants were grown in a soil media composed of 90% by volume Promix BX (Premier Tech Horticulture, Quakertown, PA) and 10% Profile Greens Grade (Profile Products LLC, Buffalo Grove, IL). […] In conformity with the methods outlined in Example 49, the effect of representative experimental compounds on the growth of Glycine max was determined at 2 different levels (respectively, 140 and 280 g acid equivalent (ae)/ha) of the experimental actives tested. […]
Examples of molecules with documented plant injury at 140 g/ha follow.
Please state the figure in %; there is no need to write the unit.

Here is how some molecules turned out for plant injury at 140 g/ha.
{"columns": ["SMILES ENTRY", "plant injury at 140 g/ha, %"],
 "data": [
  ["COc1c(Cl)ccc(Cl)c1C(=O)O/N=C(\\C#N)c1ccccc1", 8],
  ["CC/C(C)=N/OC(=O)c1c(Cl)ccc(Cl)c1OC", 3],
  ["COc1c(Cl)ccc(Cl)c1C(=O)ON1CCCCC1", 2],
  ["COc1c(Cl)ccc(Cl)c1C(=O)Nc1ccc(Cl)cc1", 8],
  ["COc1c(Cl)ccc(Cl)c1C(=O)NS(=O)(=O)c1nccn1C", 6],
  ["COc1c(Cl)ccc(Cl)c1C(=O)ONC(=O)c1cccnc1", 12]
]}

stdin: Output plant injury at 140 g/ha of `COc1c(Cl)ccc(Cl)c1C(=O)Oc1ccc(Cl)cc1`
stdout: 4

###

tested on: Glycine max; assay: whole plant or invertebrate; conditions: in vivo
METRIC NAME: Control/Injury
# respond with the number and nothing more

{"columns": ["MOLECULE", "Control/Injury"],
 "data": [
  ["COc1c(Cl)ccc(Cl)c1C(=O)O/N=C/c1cccc(/C=N/OC(=O)c2c(Cl)ccc(Cl)c2OC)c1 [Compound A-143]", 0]
]}

stdin: Look up Control/Injury of COc1c(Cl)ccc(Cl)c1C(=O)N1C(=O)C(=O)c2ccccc21 [Compound A-116] and report it.
stdout: 2

stdin: Determine from records and report Control/Injury for COc1c(Cl)ccc(Cl)c1C(=O)O/N=C(\N)CCC/C(N)=N/OC(=O)c1c(Cl)ccc(Cl)c1OC [Compound A-144]
stdout: 0

stdin: Please list Control/Injury recorded for the molecule COc1c(Cl)ccc(Cl)c1C(=O)ONC(=O)c1cccnc1 [Compound A-94]
stdout: 15

stdin: Determine from records and report Control/Injury for COCCONC(=O)c1c(Cl)ccc(Cl)c1OC [Compound A-95]
stdout: 15

###

Item-by-item account of Control/Injury
test system: Glycine max; assay: whole plant or invertebrate; settings: in vivo
Give the value as a plain number.

Below are worked cases with known answers.
{"columns": ["COMPOUND", "TARGET UNDER TEST", "Control/Injury"],
 "data": [
  ["COc1c(Cl)ccc(Cl)c1C(=O)Oc1cc(C(F)(F)F)n(C)n1 [Compound A-118]", "Glycine max", 8],
  ["COc1c(Cl)ccc(Cl)c1C(=O)Oc1cncnc1 [Compound A-66]", "Glycine max", 3]
]}

Now, please, on to the next compound.
stdin: Read the entry COc1c(Cl)ccc(Cl)c1C(=O)Nc1ncccn1 [Compound A-62] and write its reported Control/Injury.
stdout: 3

###

assay: Volatility of compounds measured by thermogravimetric analysis (TGA), rate of weight loss; format: physicochemical; settings: estimates of volatility
Quick reference for log10 Volatility among some compounds
Plainly stated, the numbers are log10 of Volatility given in ng/min.

{"columns": ["COMPOUND", "log10 Volatility"],
 "data": [
  ["COc1c(Cl)ccc(Cl)c1C(=O)O/N=C(/C)N [Compound A-136]", -1.07]
]}

stdin: Consider the compound COc1c(Cl)ccc(Cl)c1C(=O)Oc1cc2ccccc2n1C [Compound A-117] and give its recorded log10 Volatility.
stdout: -1.40

stdin: Dear colleague, please send me the reported log10 Volatility for COc1c(Cl)ccc(Cl)c1C(=O)OCOC(=O)c1c(Cl)ccc(Cl)c1OC [Compound A-53] when you can.
stdout: -0.72

stdin: Determine from records and report log10 Volatility for COc1ccccc1/C(N)=N/OC(=O)c1c(Cl)ccc(Cl)c1OC [Compound A-21]
stdout: -1.13

stdin: Annotate the compound CCCC[C@H](CC)COC(=O)c1c(Cl)ccc(Cl)c1OC [Compound A-137] with its measured log10 Volatility.
stdout: 0.53

stdin: Given COc1c(Cl)ccc(Cl)c1C(=O)O/N=C(\N)c1ccncc1 [Compound A-33] , respond with its log10 Volatility.
stdout: -1.82

stdin: Tell me its log10 Volatility given COc1c(Cl)ccc(Cl)c1C(=O)N(C)OC [Compound A-129] as the entry.
stdout: 1.13

stdin: Answer with the recorded log10 Volatility of COc1c(Cl)ccc(Cl)c1C(=O)OCc1cccnc1 [Compound A-45] only.
stdout: -0.14

stdin: For COc1c(Cl)ccc(Cl)c1C(=O)O/N=C(\C)C/C(C)=N/OC(=O)c1c(Cl)ccc(Cl)c1OC [Compound A-58] , write its log10 Volatility.
stdout: -0.96
